Data credit: patent US8927571B2

Target: human recombinant dopamine D2L receptor (Homo sapiens)
Sequence (P14416 whole entry): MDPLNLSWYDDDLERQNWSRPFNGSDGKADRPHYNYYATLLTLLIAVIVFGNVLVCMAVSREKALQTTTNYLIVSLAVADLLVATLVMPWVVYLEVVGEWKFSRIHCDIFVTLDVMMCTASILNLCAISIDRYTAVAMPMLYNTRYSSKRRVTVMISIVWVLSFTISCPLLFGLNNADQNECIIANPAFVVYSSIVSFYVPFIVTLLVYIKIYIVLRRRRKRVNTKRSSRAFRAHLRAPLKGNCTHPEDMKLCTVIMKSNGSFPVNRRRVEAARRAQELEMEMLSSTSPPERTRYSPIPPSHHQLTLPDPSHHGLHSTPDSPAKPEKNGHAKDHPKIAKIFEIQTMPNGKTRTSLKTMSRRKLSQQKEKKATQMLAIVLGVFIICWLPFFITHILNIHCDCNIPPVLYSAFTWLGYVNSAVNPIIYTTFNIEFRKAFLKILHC
Test: Dopamine D2L radioligand binding assay ([3H]Spiperone)
Details: read-out: Percent Inhibition of ligand binding, Dopamine (1 μM) D2L
Class yes (1): inhibition at 1 µM at least 40%. Class no (0): inhibition at 1 µM below 40%.

compound: CCOC(=O)CC(Cn1c2c(c3cc(C)ccc31)CN(C)CC2)c1ccc(F)cc1 (stereo not shown)
label.class: no (0)
--
compound: Cc1ccc2c(c1)c1c(n2CC2(c3ccc(F)cc3)OCCO2)CCN(C)C1
label.class: yes (1)
--
compound: CN1CCc2c(c3cc(Cl)ccc3n2CC2(c3ccc(Cl)cc3)OCCO2)C1
label.class: yes (1)

Query :: Item `Cc1ccc2c(c1)c1c(n2CC2(c3ccccc3)OCCO2)CCN(C)C1` with inhibition at 1 µM of 40% or above?
Result :: yes (1)

Query :: Does CNC(=O)CC(Cn1c2c(c3cc(C)ccc31)CN(C)CC2)c1ccc(F)cc1 (stereo not shown) have a reported inhibition at 1 µM of at least 40%?
Result :: no (0)

Query :: Would you say `CN1CCc2c(c3cc(Cl)ccc3n2CC2(c3ccc(F)cc3)OCCO2)C1` shows inhibition at 1 µM at minimum 40%?
Result :: yes (1)

Query :: Dear colleague, could you confirm whether Cc1ccc2c(c1)c1c(n2CC(CC(=O)O)c2ccc(F)cc2)CCN(C)C1 (stereo not shown) has inhibition at 1 µM at or above 40%?
Result :: no (0)

---

# Lookup of reported inhibition at 1 µM keyed by entry
Target: human recombinant adrenergic α1D receptor (Homo sapiens)
Construct: expressed in transfected cells; host or cells: human embryonic kidney (HEK-293) cells
Sequence (P25100 whole entry): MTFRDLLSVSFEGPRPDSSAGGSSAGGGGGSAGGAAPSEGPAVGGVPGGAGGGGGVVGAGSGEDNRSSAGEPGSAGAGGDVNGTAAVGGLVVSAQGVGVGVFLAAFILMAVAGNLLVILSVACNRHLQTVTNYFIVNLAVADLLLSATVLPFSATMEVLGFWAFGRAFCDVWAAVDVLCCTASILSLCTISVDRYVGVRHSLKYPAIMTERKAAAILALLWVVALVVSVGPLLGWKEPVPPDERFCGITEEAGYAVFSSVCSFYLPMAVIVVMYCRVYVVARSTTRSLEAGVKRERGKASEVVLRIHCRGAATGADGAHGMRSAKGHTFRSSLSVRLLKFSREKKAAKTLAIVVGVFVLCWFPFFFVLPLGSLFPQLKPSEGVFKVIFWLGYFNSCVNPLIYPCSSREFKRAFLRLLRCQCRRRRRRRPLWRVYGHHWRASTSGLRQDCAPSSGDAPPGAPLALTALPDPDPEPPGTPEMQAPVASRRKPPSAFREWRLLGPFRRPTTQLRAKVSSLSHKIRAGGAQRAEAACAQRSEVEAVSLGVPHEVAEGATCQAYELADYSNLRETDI
Experiment: Adrenergic α1D radioligand binding assay ([3H]Prozosin)
Conditions: 0.6 nM [3H]Prozosin, read-out: Percent Inhibition of ligand binding, Adrenergic (1 μM) α1D
Hi! Could you send only the number? It should be in %, unit omitted.

Observe how each entry below is paired with its result.
molecule: Cc1ccc2c(c1)c1c(n2CC2(c3ccccc3)OCCO2)CCN(C)C1 [Compound 2]
inhibition at 1 µM / %: 56
--
molecule: CNC(=O)CC(Cn1c2c(c3cc(C)ccc31)CN(C)CC2)c1ccc(F)cc1 (stereo not shown) [Compound 8]
inhibition at 1 µM / %: 87
--
molecule: Cc1ccc2c(c1)c1c(n2CC2(c3ccc(F)cc3)OCCO2)CCN(C)C1 [Compound 3]
inhibition at 1 µM / %: 60
--
molecule: CN1CCc2c(c3cc(Cl)ccc3n2CC2(c3ccc(Cl)cc3)OCCO2)C1 [Compound 5]
inhibition at 1 µM / %: 16
--
molecule: CCOC(=O)CC(Cn1c2c(c3cc(C)ccc31)CN(C)CC2)c1ccc(F)cc1 (stereo not shown) [Compound 6]
inhibition at 1 µM / %: 106
--
molecule: Cc1ccc2c(c1)c1c(n2CC(CC(=O)O)c2ccc(F)cc2)CCN(C)C1 (stereo not shown) [Compound 7]
inhibition at 1 µM / %: 21

Query :: Which inhibition at 1 µM value belongs to CN1CCc2c(c3cc(Cl)ccc3n2CC2(c3ccc(F)cc3)OCCO2)C1 [Compound 4] ?
Result :: 35

---

Target: human recombinant histamine H1 receptor (Homo sapiens)
Sequence (P35367 whole entry): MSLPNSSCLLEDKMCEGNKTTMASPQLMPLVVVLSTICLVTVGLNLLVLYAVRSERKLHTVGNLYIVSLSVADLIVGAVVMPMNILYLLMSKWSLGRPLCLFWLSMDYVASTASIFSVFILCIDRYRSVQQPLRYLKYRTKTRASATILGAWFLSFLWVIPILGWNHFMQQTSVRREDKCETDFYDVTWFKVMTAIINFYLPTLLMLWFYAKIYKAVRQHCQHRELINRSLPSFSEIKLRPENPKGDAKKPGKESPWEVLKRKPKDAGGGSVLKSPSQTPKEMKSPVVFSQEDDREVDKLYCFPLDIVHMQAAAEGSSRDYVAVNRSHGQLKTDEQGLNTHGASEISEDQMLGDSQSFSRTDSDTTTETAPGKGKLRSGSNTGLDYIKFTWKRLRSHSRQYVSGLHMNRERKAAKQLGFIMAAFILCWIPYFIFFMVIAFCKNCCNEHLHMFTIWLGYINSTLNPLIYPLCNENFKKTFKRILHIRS
Experiment: Histamine H1 radioligand binding assay ([3H]Pyrilamine)
Conditions: percent inhibition of specific binding of […] [3H]Pyrilamine; compounds screened at 1 μM or lower
Procedure: To evaluate in radioligand binding assays the activity of compounds of the invention, human recombinant histamine H1 receptor expressed in Chinese hamster ovary (CHO) cells (De Backer, M. D. et al., Biochem. Biophys. Res. Comm. 197(3):1601, 1993) in a modified Tris-HCl buffer (50 mM Tris-HCl, pH 7.4, 2 mM MgCl2, 100 mM NaCl, 250 mM Sucrose) was used. […] Receptor proteins were filtered and washed, the filters were then counted to determine [^3H]Pyrilamine specifically bound. […]
readout.kind: Binding Data (% Inhibition) Histamine Binding H1 (%)
The answer is to be given in %; state only the numeric part.

Look over these answered cases.
molecule: Cc1ccc2c(c1)c1c(n2CC2(c3ccccc3)OCCO2)CCN(C)C1
target.of.assay: human recombinant histamine H1 receptor (Homo sapiens)
value.measured: 71
--
molecule: CNC(=O)CC(Cn1c2c(c3cc(C)ccc31)CN(C)CC2)c1ccc(F)cc1 (stereo not drawn)
target.of.assay: human recombinant histamine H1 receptor (Homo sapiens)
value.measured: 6
--
molecule: Cc1ccc2c(c1)c1c(n2CC2(c3ccc(F)cc3)OCCO2)CCN(C)C1
target.of.assay: human recombinant histamine H1 receptor (Homo sapiens)
value.measured: 86
--
molecule: CN1CCc2c(c3cc(Cl)ccc3n2CC2(c3ccc(F)cc3)OCCO2)C1
target.of.assay: human recombinant histamine H1 receptor (Homo sapiens)
value.measured: 87

Query :: Reported Binding Data (% Inhibition) Histamine Binding H1, molecule Cc1ccc2c(c1)c1c(n2CC(CC(=O)O)c2ccc(F)cc2)CCN(C)C1 (stereo not drawn) : ____
Result :: −1

Query :: Field request: Binding Data (% Inhibition) Histamine Binding H1 | item: `CN1CCc2c(c3cc(Cl)ccc3n2CC2(c3ccc(Cl)cc3)OCCO2)C1`
Result :: 90
